Recorded values, source patent US11472806B2.

Target: human mGluR3 (hmGluR3) (Homo sapiens)
Sequence (Q14832 23-879): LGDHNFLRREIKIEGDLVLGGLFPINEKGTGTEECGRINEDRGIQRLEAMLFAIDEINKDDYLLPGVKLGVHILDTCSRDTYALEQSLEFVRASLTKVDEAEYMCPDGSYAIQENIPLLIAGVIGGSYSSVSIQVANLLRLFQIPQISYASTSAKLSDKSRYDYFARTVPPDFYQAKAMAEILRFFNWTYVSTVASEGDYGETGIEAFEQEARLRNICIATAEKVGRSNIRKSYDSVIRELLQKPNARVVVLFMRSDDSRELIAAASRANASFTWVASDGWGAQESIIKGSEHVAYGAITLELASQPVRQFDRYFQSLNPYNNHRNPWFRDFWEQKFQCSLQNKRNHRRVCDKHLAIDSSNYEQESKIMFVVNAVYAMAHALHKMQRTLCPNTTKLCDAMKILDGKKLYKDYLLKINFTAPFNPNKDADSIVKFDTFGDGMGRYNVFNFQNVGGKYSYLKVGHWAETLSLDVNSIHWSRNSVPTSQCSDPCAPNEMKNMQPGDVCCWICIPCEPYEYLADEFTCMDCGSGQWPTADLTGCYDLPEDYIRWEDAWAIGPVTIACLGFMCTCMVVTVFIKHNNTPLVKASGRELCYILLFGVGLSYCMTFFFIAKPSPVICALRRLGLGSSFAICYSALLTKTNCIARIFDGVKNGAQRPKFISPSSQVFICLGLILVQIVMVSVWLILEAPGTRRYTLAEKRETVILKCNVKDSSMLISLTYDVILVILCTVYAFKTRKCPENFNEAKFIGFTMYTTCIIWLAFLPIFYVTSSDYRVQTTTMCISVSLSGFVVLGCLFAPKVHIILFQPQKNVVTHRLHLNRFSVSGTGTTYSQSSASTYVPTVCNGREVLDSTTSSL
Experiment: Human mGluR3 positive allosteric modulator evaluation using Ca++ functional assay
Conditions: hmGluR3 transiently over-expressed in HEK-293 cells; cells stimulated by an EC50 glutamate concentration; intracellular Ca2+ (Fluo4AM, FLIPR Tetra)
Structures can show the parent of a compound that is named as a salt.
Recorded EC50 values for a group of compounds are listed next.

{"compound": "CN1Cc2ccc(-c3ccc(F)nc3)cc2-c2ccc(F)nc2C1=O", "EC50": "1 to 10 µM"}
{"compound": "COCCn1cc2c(n1)C(=O)N(C)Cc1ccc(-c3cccnc3C)cc1-2", "EC50": "1 to 10 µM"}
{"compound": "Cc1ncccc1-c1ccc2c(c1)-c1c[nH]nc1C(=O)N(C)C2", "EC50": "1 to 10 µM"}
{"compound": "Cc1ncccc1-c1ccc2c(c1)-c1cc[nH]c1C(=O)N(C)C2", "EC50": "0.1 to 1 µM"}
{"compound": "Cc1cnc2c(c1)-c1cc(-c3cccnc3C)ccc1CN(C)C2=O", "EC50": "1 to 10 µM"}
{"compound": "COCn1cc2c(n1)C(=O)N(C)Cc1ccc(-c3ccc(F)nc3)cc1-2", "EC50": "0.1 to 1 µM"}
{"compound": "Cc1ncccc1-c1cnc2c(n1)-n1cccc1C(=O)N(C)C2 [Example 7, dihydrochloride]", "EC50": "1 to 10 µM"}
{"compound": "Cc1cnc2c(c1)-c1cc(-c3ccc(F)nc3)ccc1CN(C)C2=O", "EC50": "0.1 to 1 µM"}
{"compound": "COc1ccc2c(n1)C(=O)N(C)Cc1ccc(-c3cccnc3C)cc1-2", "EC50": "0.1 to 1 µM"}
{"compound": "Cc1ncccc1-c1cnc2c(c1)-n1cccc1C(=O)N(C)C2 [Example 6, dihydrochloride]", "EC50": "> 10 µM"}
{"compound": "CN1Cc2ccc(-c3cccc(C#N)c3)cc2-c2cccnc2C1=O", "EC50": "0.1 to 1 µM"}
{"compound": "Cc1ccc2c(n1)C(=O)N(C)Cc1ccc(-c3ccc(F)cn3)cc1-2", "EC50": "0.1 to 1 µM"}
{"compound": "COCn1cc2c(n1)C(=O)N(C)C1(CC1)c1ccc(-c3ccc(F)cn3)cc1-2", "EC50": "< 0.1 µM"}
{"compound": "Cc1ncccc1-c1ccc2c(c1)-c1ccsc1C(=O)N(C)C2", "EC50": "0.1 to 1 µM"}
{"compound": "Cc1ncccc1-c1ccc2c(c1)-n1cccc1C(=O)N(C)C21CCC1", "EC50": "0.1 to 1 µM"}
{"compound": "Cc1ncccc1-c1ccc2c(c1)-c1cccnc1C(=O)N(C)C2", "EC50": "0.1 to 1 µM"}
{"compound": "CN1Cc2ccc(-c3ccc(F)nc3)cc2-c2cc(F)cnc2C1=O", "EC50": "0.1 to 1 µM"}
